Taken from paper PMC9564337.

PROTOCOL_DESCRIPTION: in vivo
SETTINGS: female, NMRI nude (nu/nu), mouse, total radioactivity, Uptake (%ID/g) muscle

{"MOLECULE": "CC[C@H](C)[C@H](NC(=O)[C@@H](NC(=O)[C@@H]1CCCN1C(=O)[C@H](CCCNC(=N)N)NC(=O)[C@H](CCCNC(N)=NC(=O)NCCCCNC(=O)CN1CCN(CC(=O)O)CCN(CC(=O)O)CCN(CC(=O)O)CC1)NC)C(C)(C)c1ccc(O)cc1)C(=O)N[C@@H](CC(C)C)C(=O)O [[^68Ga]56, metal not drawn]", "RESULT_UNITS": "%ID/g", "tissue uptake at 10 min": 1.1}

---

PROTOCOL_DESCRIPTION: in vivo
SETTINGS: female, NMRI nude (nu/nu), mouse, total radioactivity, Uptake (%ID/g) pancreas
METRIC_NAME: tissue uptake at 25 min (%ID/g)

{"MOLECULE": "CC[C@H](C)[C@H](NC(=O)[C@@H](NC(=O)[C@@H]1CCCN1C(=O)[C@H](CCCNC(=N)N)NC(=O)[C@H](CCCNC(N)=NC(=O)NCCCCNC(=O)CN1CCN(CC(=O)O)CCN(CC(=O)O)CCN(CC(=O)O)CC1)NC)C(C)(C)c1ccc(O)cc1)C(=O)N[C@@H](CC(C)C)C(=O)O [[^68Ga]56, metal not drawn]", "NUMERIC_RESULT": 1.1}

---

PROTOCOL_DESCRIPTION: in vitro
Assay type: in vitro ADME
SETTINGS: human, plasma

{"SMILES_DATA": "CC[C@H](C)[C@H](NC(=O)[C@@H](NC(=O)[C@@H]1CCCN1C(=O)[C@H](CCCNC(=N)N)NC(=O)[C@H](CCCNC(N)=NC(=O)NCCCCNC(=O)CN1CCN(CC(=O)O)CCN(CC(=O)O)CCN(CC(=O)O)CC1)NC)C(C)(C)c1ccc(O)cc1)C(=O)N[C@@H](CC(C)C)C(=O)O", "half-life at 100 µM": "> 24 h"}

---

PROTOCOL_DESCRIPTION: in vitro
Format: in vitro ADME
SETTINGS: human, plasma, pH 7.4, % Intact Peptide in Plasma after 1 h
METRIC_NAME: remaining at 1 h, 100 µM

{"COMPOUND": "CN[C@@H](CCCNC(N)=NC(=O)NCCOCCOCCNC(=O)CN1CCN(CC(=O)O)CCN(CC(=O)O)CCN(CC(=O)O)CC1)C(=O)N[C@@H](CCCNC(=N)N)C(=O)N1CCC[C@H]1C(=O)N[C@@H](Cc1ccc(O)cc1)C(=O)N[C@H](C(=O)N[C@@H](CC(C)C)C(=O)O)C(C)(C)C [Compound 23]", "METRIC_NAME": "remaining at 1 h, 100 µM", "RESULT": "> 99%"}
{"COMPOUND": "CN[C@@H](CCCNC(N)=NC(=O)NCCCCNC(=O)CN1CCN(CC(=O)O)CCN(CC(=O)O)CCN(CC(=O)O)CC1)C(=O)N[C@@H](CCCNC(=N)N)C(=O)N1CCC[C@H]1C(=O)N[C@@H](Cc1ccc(O)cc1)C(=O)N[C@H](C(=O)N[C@@H](CC(C)C)C(=O)O)C(C)(C)C [Compound 21]", "METRIC_NAME": "remaining at 1 h, 100 µM", "RESULT": "> 99%"}
